This collection of values is drawn from PubChem BioAssay AID1224855.

assay procedure: Confirmation assay for measurement of the activity of small molecule inhibitors on Zika virus induced Caspase-3 activity in human iPSC derived neural progenitor cells (hNPCs)
applied conditions: hNPC ZIKV-induced caspase-3/7, Caspase-Glo luminescence, 6 h; series mostly up to 46.1 µM
Inconclusive results are not listed. Calls of active or inactive are those of the source. The call rests on the fitted dose curve; in most records, active means well fitted inhibition curve with a large enough effect; inconclusive means small, poorly fitted or top-dose-only effect; inactive means no such curve, though single readings can be large or run the other way.
Parameter call: string, one of active, inactive

Cc1oncc1C(=O)Nc1ccc(C(F)(F)F)cc1 | active

### Prompt Look up the recorded call for COc1cc(NC(C)CCCN)c2ncccc2c1 (centres undefined) in this test.
### Response inactive

### Prompt Each compound tested received a call. Report the one for CC(C)OC(=O)CCCC=CC[C@@H]1[C@H](C=C[C@@H](O)COc2cccc(C(F)(F)F)c2)[C@H](O)C[C@@H]1O .
### Response inactive

### Prompt Please state the recorded outcome for this compound: O=C(Nc1cc2cc[nH]c2cn1)c1ccccc1
### Response active

### Prompt Recorded call for COc1cccc2c1C(=O)c1c(O)c3c(c(O)c1C2=O)C[C@@](O)(C(=O)CO)C[C@@H]3O[C@H]1C[C@H](N)[C@H](O[C@@H]2CCCCO2)[C@H](C)O1 ?
### Response inactive

### Prompt Hey, what did the test say about O[C@@H](COc1cccc2ncccc12)CN1CCN(C2c3ccccc3[C@@H]3[C@H](c4ccccc42)C3(F)F)CC1 (some centres undefined) ?
### Response inactive

### Prompt Returns: the outcome recorded for CC(C)(C)COc1ccc(-n2cc(C(=O)O)cn2)cc1C#N in this assay.
### Response active

### Prompt Assay outcome for Cc1csc(NC(=O)c2sc3nc4c(c(C(F)(F)F)c3c2N)CCC4)n1 : what was it?
### Response active

### Prompt What outcome does the record of this test show for N[C@H](CSC(c1ccccc1)(c1ccccc1)c1ccccc1)C(=O)O ?
### Response inactive
